testSummary: Volume of distribution in mouse
Type: ADME, organism-based
measurementSetup: in vivo, read-out: Vdss
quantityKind: Vd (L/kg)
Numbers only, in L/kg.

// query # query: Vd of entry Fc1ccc2c(-c3nc4cc(N5CCC(N6CCCCC6)CC5)ccc4[nH]3)[nH]nc2c1
// result 24.8

###

testSummary: Oral bioavailability in mouse
Assay type: ADME, organism-based
measurementSetup: in vivo
quantityKind: bioavailability (%)
Give bare numbers, in %.

// query Record request: bioavailability value, item Fc1ccc2c(-c3nc4cc(N5CCC(N6CCCCC6)CC5)ccc4[nH]3)[nH]nc2c1
// result 62

###

system: Vascular endothelial growth factor receptor 2 (Mus musculus)
Sequence (P35918 whole entry): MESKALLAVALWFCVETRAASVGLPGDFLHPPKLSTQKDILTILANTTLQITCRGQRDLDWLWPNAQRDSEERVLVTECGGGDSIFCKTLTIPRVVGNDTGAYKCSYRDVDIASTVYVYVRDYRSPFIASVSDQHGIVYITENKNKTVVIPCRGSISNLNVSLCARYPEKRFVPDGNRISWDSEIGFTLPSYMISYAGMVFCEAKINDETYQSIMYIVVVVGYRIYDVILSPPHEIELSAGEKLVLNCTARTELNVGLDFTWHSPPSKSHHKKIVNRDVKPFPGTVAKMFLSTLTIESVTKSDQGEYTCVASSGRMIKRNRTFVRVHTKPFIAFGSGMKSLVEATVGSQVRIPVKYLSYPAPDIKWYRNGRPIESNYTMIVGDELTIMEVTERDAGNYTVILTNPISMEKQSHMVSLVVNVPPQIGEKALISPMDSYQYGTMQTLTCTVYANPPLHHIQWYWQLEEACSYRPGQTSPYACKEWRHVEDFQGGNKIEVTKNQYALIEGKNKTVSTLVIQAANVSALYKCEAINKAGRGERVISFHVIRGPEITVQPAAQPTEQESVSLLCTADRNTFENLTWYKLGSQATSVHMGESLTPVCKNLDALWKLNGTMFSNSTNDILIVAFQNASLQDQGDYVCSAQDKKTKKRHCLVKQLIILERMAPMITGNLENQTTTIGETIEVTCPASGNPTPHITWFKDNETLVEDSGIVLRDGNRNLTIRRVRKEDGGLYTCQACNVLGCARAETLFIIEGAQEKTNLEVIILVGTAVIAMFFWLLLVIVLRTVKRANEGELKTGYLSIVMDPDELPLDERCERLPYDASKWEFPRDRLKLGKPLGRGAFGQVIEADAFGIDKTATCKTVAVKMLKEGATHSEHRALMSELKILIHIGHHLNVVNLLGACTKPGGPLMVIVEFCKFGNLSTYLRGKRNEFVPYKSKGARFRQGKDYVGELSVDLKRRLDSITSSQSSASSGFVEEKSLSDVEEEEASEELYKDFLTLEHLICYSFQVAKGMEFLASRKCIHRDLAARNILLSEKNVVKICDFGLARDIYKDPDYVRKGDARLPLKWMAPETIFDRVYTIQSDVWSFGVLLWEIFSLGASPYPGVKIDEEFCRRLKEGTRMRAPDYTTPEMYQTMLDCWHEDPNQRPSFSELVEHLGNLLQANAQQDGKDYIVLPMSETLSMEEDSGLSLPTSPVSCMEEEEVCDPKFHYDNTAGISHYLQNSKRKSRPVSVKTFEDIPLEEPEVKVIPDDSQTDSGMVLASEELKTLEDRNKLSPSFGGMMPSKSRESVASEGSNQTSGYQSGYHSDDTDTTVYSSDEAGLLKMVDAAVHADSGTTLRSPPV
Classify: fulfilled when IC50 is strictly less than 50 nM; not fulfilled when IC50 is not.

// below: answered compounds
compound	classLabel
c1cc2[nH]nc(-c3nc4ccc(N5CCC(N6CCCCC6)CC5)cc4[nH]3)c2cc1NCC1CCCCC1	fulfilled
CC(C)(C)NC(=O)Nc1cccc2c(-c3nc4cc(N5CCC(N6CCCCC6)CC5)ccc4[nH]3)[nH]nc12	not fulfilled
c1ccc(Oc2ccc3n[nH]c(-c4nc5cc(N6CCC(N7CCCCC7)CC6)ccc5[nH]4)c3c2)cc1	fulfilled
CC(C)(C)NC(=O)Nc1ccc2[nH]nc(-c3nc4ccc(N5CCC(N6CCCCC6)CC5)cc4[nH]3)c2c1	fulfilled
c1ccc(COc2cccc3[nH]nc(-c4nc5cc(N6CCC(N7CCCCC7)CC6)ccc5[nH]4)c23)cc1	not fulfilled
c1ccc(COc2cccc3c(-c4nc5cc(N6CCC(N7CCCCC7)CC6)ccc5[nH]4)[nH]nc23)cc1	not fulfilled

// query Would you kindly verify if IC50 of COC(=O)c1ccc2[nH]nc(-c3nc4ccc(N5CCC(N6CCCCC6)CC5)cc4[nH]3)c2c1 is strictly less than 50 nM?
// result fulfilled

// query In the record for CN1CCC(N(C)c2ccc3nc(-c4n[nH]c5ccccc45)[nH]c3c2)CC1 , is IC50 less than 50 nM?
// result not fulfilled

// query # TODO verify IC50 < 50 nM strictly for this compound: CN1CCN(c2ccc3[nH]c(-c4[nH]nc5ccccc45)nc3c2)CC1
// result not fulfilled

// query Problem: For the compound FC(F)(F)c1ccc2c(-c3nc4ccc(N5CCC(N6CCCCC6)CC5)cc4[nH]3)n[nH]c2c1 , is IC50 under 50 nM?
// result not fulfilled

// query Answer whether the compound c1ccc2c(-c3nc4cc(OCCCN5CCCC5)ccc4[nH]3)[nH]nc2c1 has IC50 strictly less than 50 nM
// result not fulfilled

// query Is IC50 strictly under 50 nM for the entry c1ccc(COc2ccc3[nH]nc(-c4nc5ccc(N6CCC(N7CCCCC7)CC6)cc5[nH]4)c3c2)cc1 ?
// result fulfilled

// query Does the reported IC50 of the following compound sit strictly below 50 nM? Fc1cccc2c(-c3nc4ccc(N5CCC(N6CCCCC6)CC5)cc4[nH]3)n[nH]c12
// result not fulfilled

// query Hello, is IC50 of the following compound strictly smaller than 50 nM? c1ccc(COc2ccc3c(-c4nc5ccc(N6CCC(N7CCCCC7)CC6)cc5[nH]4)n[nH]c3c2)cc1
// result fulfilled

// query Hello, I'm reviewing records and need to know if IC50 of c1ccc2[nH]c(-c3n[nH]c4ccccc34)nc2c1 is below 50 nM. Could you check?
// result not fulfilled

###

Kindly supply the reported pIC50 values for the records listed here.
system: Platelet-derived growth factor receptor beta (Mus musculus)
Sequence (P05622 whole entry): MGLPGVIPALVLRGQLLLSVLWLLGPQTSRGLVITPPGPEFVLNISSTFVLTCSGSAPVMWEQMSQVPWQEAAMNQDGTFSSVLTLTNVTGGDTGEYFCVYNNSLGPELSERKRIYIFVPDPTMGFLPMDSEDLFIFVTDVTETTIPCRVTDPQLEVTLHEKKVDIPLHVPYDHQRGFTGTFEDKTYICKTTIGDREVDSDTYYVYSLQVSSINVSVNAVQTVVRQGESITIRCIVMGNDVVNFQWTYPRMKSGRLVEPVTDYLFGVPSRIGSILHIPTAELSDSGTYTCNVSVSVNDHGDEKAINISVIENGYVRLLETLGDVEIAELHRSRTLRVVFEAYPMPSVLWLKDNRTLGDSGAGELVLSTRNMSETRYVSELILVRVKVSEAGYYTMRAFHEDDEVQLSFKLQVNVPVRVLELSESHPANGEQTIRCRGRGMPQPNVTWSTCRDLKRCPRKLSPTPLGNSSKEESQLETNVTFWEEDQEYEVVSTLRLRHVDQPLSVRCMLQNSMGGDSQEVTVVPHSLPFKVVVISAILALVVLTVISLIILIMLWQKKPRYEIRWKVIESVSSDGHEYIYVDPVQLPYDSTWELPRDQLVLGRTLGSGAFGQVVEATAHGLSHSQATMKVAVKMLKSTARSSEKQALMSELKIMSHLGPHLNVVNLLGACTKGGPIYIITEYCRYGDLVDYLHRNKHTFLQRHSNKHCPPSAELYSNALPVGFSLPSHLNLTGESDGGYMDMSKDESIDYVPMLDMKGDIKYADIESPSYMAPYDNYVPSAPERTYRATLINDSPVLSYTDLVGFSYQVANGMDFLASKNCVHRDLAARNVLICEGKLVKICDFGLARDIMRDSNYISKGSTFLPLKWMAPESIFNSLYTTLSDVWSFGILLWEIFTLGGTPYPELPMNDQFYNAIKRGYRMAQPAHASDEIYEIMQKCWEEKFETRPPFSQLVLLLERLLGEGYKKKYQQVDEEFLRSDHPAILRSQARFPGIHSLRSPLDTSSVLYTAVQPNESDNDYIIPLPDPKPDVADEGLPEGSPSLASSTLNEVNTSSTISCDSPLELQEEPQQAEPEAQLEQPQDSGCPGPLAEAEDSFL
pIC50: −log10 of the molar value.

Answered cases to consult:
compound	system	quantityKind	readoutValue
CC(C)(C)NC(=O)Nc1cccc2c(-c3nc4cc(N5CCC(N6CCCCC6)CC5)ccc4[nH]3)[nH]nc12	Platelet-derived growth factor receptor beta (Mus musculus)	pIC50	< 5.52
c1ccc(COc2cccc3c(-c4nc5cc(N6CCC(N7CCCCC7)CC6)ccc5[nH]4)[nH]nc23)cc1	Platelet-derived growth factor receptor beta (Mus musculus)	pIC50	< 5.52

Pending compound:
// query I would be grateful if you could share the reported pIC50 for c1ccc2c(-c3nc4c(N5CCOCC5)cccc4[nH]3)n[nH]c2c1 .
// result < 5.52
